The reported numbers originate from paper PMC9569680.

target-or-test-system: GST-HBx (genotype D); HBx-D (Hepatitis B virus)
Construct: gene X; N-terminal GST tag kept (GST 26 kDa; GST-HBx 43 kDa), full-length HBx (154 aa), pGEX, E. coli BL21 (DE3), glutathione-Sepharose
measurement-protocol: biochemical
Set-up: Surface plasmon resonance imaging; GST-HBx injected over chip of photo-crosslinked FDA-approved drugs (PlexArray HT), Langmuir fit
Description: All the assays and analyses were performed by Plexera LLC. The binding activity was measured by surface plasmon resonance imaging (SPRi) using a PlexArray HT system (Plexera LLC). […] 25, 50, or 100 nM of GST-HBx protein were injected on the chip surface at a flow rate of […] in order, and the SPRi signal was measured at 25 °C. […] Because purification of HBx alone was difficult due to insolubility, HBx was expressed as a GST-fused protein.
Where a name gives a salt, the structure may show the parent alone.
Threshold check on koff: strictly below 0.0001 s⁻¹ is Y; on or above 0.0001 s⁻¹ is N.

Answered examples (6):
compound="CC(C)NCC(O)COc1ccc(CCOCC2CC2)cc1 (centres unmarked)" cat=Y
compound="CCC1=C(C)CN(C(=O)NCCc2ccc(S(=O)(=O)NC(=O)N[C@H]3CC[C@H](C)CC3)cc2)C1=O [Glimepiride]" cat=N
compound="CCCCC(CC)CNC(=N)NC(=N)NCCCCCCNC(=N)NC(=N)NCC(CC)CCCC (centres unmarked) [Alexidine hydrochloride]" cat=Y
compound="CC(C(=O)O)c1ccc2c(c1)Cc1cccnc1O2 (centres unmarked)" cat=N
compound=O=C(O)c1ccc(-n2nc(-c3ccccc3O)nc2-c2ccccc2O)cc1 cat=N
compound=COc1ccc(/C=C/C(=O)Nc2ccccc2C(=O)O)cc1OC cat=Y

Bench note: check whether CCCCCCCCCCCC[N+](C)(C)CCOc1ccccc1 [Domiphen Bromide] shows koff below 0.0001 s⁻¹
Y

# check: koff < 0.0001 s⁻¹ for `CC[C@H]1OC(=O)C[C@@H](O)[C@H](C)[C@@H](O[C@@H]2O[C@H](C)[C@@H](O)[C@H](N(C)C)[C@H]2O)[C@@H](CCN2C[C@H](C)C[C@H](C)C2)C[C@@H](C)C(=O)/C=C/C(C)=C/[C@@H]1CO[C@@H]1O[C@H](C)[C@@H](O)[C@@H](OC)[C@H]1OC`
Y

In plain terms, does `CC1=NN(c2ccc(C)c(C)c2)C(=O)/C1=N\Nc1cccc(-c2cccc(C(=O)O)c2)c1O` come in under 0.0001 s⁻¹ for koff?
N

Check if koff falls below 0.0001 s⁻¹ for CC1(C)[C@@H](O[C@H]2O[C@H](C(=O)O)[C@@H](O)[C@H](O)[C@H]2O[C@@H]2O[C@H](C(=O)O)[C@@H](O)[C@H](O)[C@H]2O)CC[C@]2(C)[C@H]3C(=O)C=C4[C@@H]5C[C@@](C)(C(=O)O)CC[C@]5(C)CC[C@@]4(C)[C@]3(C)CC[C@@H]12 [Ammonium glycyrrhizinate] .
N

A record lists `CCOc1nc2cccc(C(=O)O)c2n1Cc1ccc(-c2ccccc2-c2noc(=O)[nH]2)cc1` . Is its koff below 0.0001 s⁻¹?
N

Record `Cc1noc(NS(=O)(=O)c2ccc(N)cc2)c1C` : is its koff strictly below 0.0001 s⁻¹?
N

In plain terms, does CC(C)[C@H]1CC[C@H](C(=O)N[C@H](Cc2ccccc2)C(=O)O)CC1 [Nateglinide] come in under 0.0001 s⁻¹ for koff?
N

Threshold test, koff < 0.0001 s⁻¹: `CCCc1nc(C(C)(C)O)c(C(=O)OCc2oc(=O)oc2C)n1Cc1ccc(-c2ccccc2-c2nnn[nH]2)cc1`
N
